Origin of values: paper PMC5571359

# Tested on: T. cruzi intracellular amastigotes
# PROTOCOL_DETAILS: Intracellular anti-Trypanosoma cruzi image-based assay (amastigotes)
# Assay type: cell-based
# CONDITION_DESCRIPTION: reference compound set; IA = inactive at 16.4 μM; read-out: IC50 T. cruzi intracellular amastigotes
Hi there, I'd appreciate the recorded IC50 for every entry that follows.

// recorded IC50 for C[C@H]1COc2c(N3CCN(C)CC3)c(F)cc3c(=O)c(C(=O)O)cn1c23 [Levofloxacin (–)-ofloxacin, reference compound] : > 16.4 µM

The reported value for NCCC[C@](N)(C(=O)O)C(F)F [α-Difluoromethylornithine, reference compound] in terms of IC50 is > 16.4 µM

Noted for CC(=O)OC[C@H]1O[C@@H]([S-])[C@H](OC(C)=O)[C@@H](OC(C)=O)[C@@H]1OC(C)=O.CCP(CC)CC.[Au+] [Auranofin, reference compound] : its IC50 reads 3.02 µM

---

# Tested on: T. b. brucei 427 bloodstream trypanosomes
# PROTOCOL_DETAILS: T. b. brucei resazurin viability assay
# Format: cell-based, Trypanosoma brucei brucei
PROPERTY_MEASURED: activity against T. brucei brucei in the Discovery Biology assay

molecule=C[C@H](c1ccc2c(c1)CCCC2)N(C)c1ncc2c(N)nc(N)nc2n1 recorded_measurement="not active"
molecule=COc1ccc(Oc2ccc([C@@H](C)N(C)c3ncc4c(N)nc(N)nc4n3)cc2)cc1 recorded_measurement="not active"
molecule="CC(c1cc(Cl)cc(Cl)c1)N(C)c1ncc2c(N)nc(N)nc2n1 (stereo not shown)" recorded_measurement="not active"

---

# Test system: HEK293 cells
# PROTOCOL_DETAILS: HEK293 resazurin cell cytotoxicity assay
PROPERTY_MEASURED: activity in the HEK293 cytotoxicity assay

compound=C[C@H](c1ccc2c(c1)CCCC2)N(C)c1ncc2c(N)nc(N)nc2n1 recorded_measurement="no activity"
compound="CC(c1cc(Cl)cc(Cl)c1)N(C)c1ncc2c(N)nc(N)nc2n1 (stereo not shown)" recorded_measurement="no activity"
compound=COc1ccc(Oc2ccc([C@@H](C)N(C)c3ncc4c(N)nc(N)nc4n3)cc2)cc1 recorded_measurement="no activity"

---

# Test system: L. donovani MHOM/IN/80/DD8 intracellular amastigotes
# PROTOCOL_DETAILS: Leishmania donovani intracellular amastigote assay in THP-1 cells
# Type: cell-based
# CONDITION_DESCRIPTION: Leishmania donovani, THP-1; PBox compounds, intracellular amastigotes; read-out: IC50 L. donovani (Discovery Biology)
Exercise: for every item that follows, state its recorded IC50.
Response body: numeric value in µM, unit text excluded.

Value of measured IC50 for the entry O=C(Nc1ccc(F)c(-c2nc3cc(-c4ccccc4)cnc3[nH]2)c1)N1CCCC1 [MMV688372] : 1.15

# molecule COc1cc(-c2cc(-c3ccc(S(C)(=O)=O)cc3)cnc2N)ccc1O [MMV010576] ; its IC50 = 5.18

---

For each record, write down the corresponding pIC50.
# System: T. cruzi intracellular amastigotes
# PROTOCOL_DETAILS: Intracellular anti-Trypanosoma cruzi image-based assay (amastigotes)
# Type: cell-based
# CONDITION_DESCRIPTION: Trypanosoma cruzi; in-house control stock, not the PBox sample; read-out: IC50 of standard in-house assay control, T. cruzi amastigotes
Note: pIC50 values are expressed as the negative base-10 logarithm of concentration in M.

Case CC1CS(=O)(=O)CCN1/N=C/c1ccc([N+](=O)[O-])o1 (centres unmarked) [Nifurtimox, reference compound] , T. cruzi intracellular amastigotes, pIC50 recorded as 5.91

Entry CC[C@@H]([C@H](C)O)n1ncn(-c2ccc(N3CCN(c4ccc(OC[C@@H]5CO[C@@](Cn6cncn6)(c6ccc(F)cc6F)C5)cc4)CC3)cc2)c1=O [Posaconazole, reference compound] : pIC50 on T. cruzi intracellular amastigotes = 9.00

---

What pIC50 was measured for each of the following?
# System: NF54-pfs16-LUC-GFP stage IV gametocytes
# PROTOCOL_DETAILS: Plasmodium falciparum late stage gametocyte (LSG) image-based assay
# Type: cell-based
# CONDITION_DESCRIPTION: reference compound set, 11-point dose response; IA = inactive at 20 μM; read-out: IC50 P. falciparum NF54 LSG
pIC50: −log10 of the molar value.

// pIC50 value for NCCC[C@](N)(C(=O)O)C(F)F [α-Difluoromethylornithine, reference compound] : < 4.70

GET /value?item= CC(=O)OC[C@H]1O[C@@H]([S-])[C@H](OC(C)=O)[C@@H](OC(C)=O)[C@@H]1OC(C)=O.CCP(CC)CC.[Au+] [Auranofin, reference compound] &field=pIC50 returns 6.26

pIC50 recorded for this compound, C[C@H]1COc2c(N3CCN(C)CC3)c(F)cc3c(=O)c(C(=O)O)cn1c23 [Levofloxacin (–)-ofloxacin, reference compound] , is < 4.70

---

# Tested on: L. donovani MHOM/IN/80/DD8 intracellular amastigotes
# PROTOCOL_DETAILS: Leishmania donovani intracellular amastigote assay in THP-1 cells
# Format: cell-based
# CONDITION_DESCRIPTION: read-out: IC50 L. donovani n = 2; reference compound set, second test; IA = inactive at 20 μM
pIC50: −log10 of the molar value.
Give pIC50 for every item shown.

The molecule identified as CC(=O)OC[C@H]1O[C@@H]([S-])[C@H](OC(C)=O)[C@@H](OC(C)=O)[C@@H]1OC(C)=O.CCP(CC)CC.[Au+] [Auranofin, reference compound] registered its pIC50 at 5.70

Summary for this molecule, NCCC[C@](N)(C(=O)O)C(F)F [α-Difluoromethylornithine, reference compound] : pIC50 is < 4.70

Input C[C@H]1COc2c(N3CCN(C)CC3)c(F)cc3c(=O)c(C(=O)O)cn1c23 [Levofloxacin (–)-ofloxacin, reference compound] . Output pIC50: < 4.70

---

Would you kindly list selectivity ratio at 72 h for each of these molecules?
# PROTOCOL_DETAILS: HEK293 resazurin cell cytotoxicity assay
# CONDITION_DESCRIPTION: human

// recorded selectivity ratio at 72 h for CCOC(=O)c1c(NC(=O)c2c(F)c(F)c(F)c(F)c2F)sc(C(N)=O)c1C : > 5

The recorded selectivity ratio at 72 h for c1ccc(-c2nc(NC3CCCCC3)cc(C3CC3)n2)nc1 is > 5

Nc1nc2ccc(-c3cncc(Oc4ccc(F)cc4)c3)cc2[nH]1 has a reported selectivity ratio at 72 h of > 5

Documented selectivity ratio at 72 h of CC(C)=CCC/C(C)=C/CNCCNC1C2CC3CC(C2)CC1C3 (stereo not shown) : > 5

---

# Tested on: L. donovani MHOM/IN/80/DD8 intracellular amastigotes
# PROTOCOL_DETAILS: Leishmania donovani intracellular amastigote assay in THP-1 cells
# Type: cell-based
# CONDITION_DESCRIPTION: Leishmania donovani, THP-1, read-out: IC50 L. donovani n = 1; reference compound set, first test; IA = inactive at 20 μM
Consider the following compounds; for each one, report its IC50.

Form: compound = N=C(N)c1ccc(OCCCCCOc2ccc(C(=N)N)cc2)cc1 [Pentamidine, reference compound] ; IC50 = > 20 µM

get_value(item= [H]/N=C(/N)N[C@H]1[C@H](O)[C@@H](O)[C@H](O[C@@H]2O[C@@H](C)[C@](O)(C=O)[C@H]2O[C@@H]2O[C@@H](CO)[C@H](O)[C@@H](O)[C@@H]2NC)[C@@H](N/C(N)=N\[H])[C@@H]1O [Streptomycin, reference compound] , readout=IC50) returns > 20 µM

IC50 reading for Cc1ccc(C(=O)Nc2ccc(S(=O)(=O)O)c3cc(S(=O)(=O)O)cc(S(=O)(=O)O)c23)cc1NC(=O)c1cccc(NC(=O)Nc2cccc(C(=O)Nc3cc(C(=O)Nc4ccc(S(=O)(=O)O)c5cc(S(=O)(=O)O)cc(S(=O)(=O)O)c45)ccc3C)c2)c1 [Suramin, reference compound] : > 20 µM

Lab note: measured IC50 of CCCCCCCCCCCCCCCCOP(=O)([O-])OCC[N+](C)(C)C [Miltefosine, reference compound] was 11.7 µM

The reported value for CC(=O)NC[C@H]1CN(c2ccc(N3CCOCC3)c(F)c2)C(=O)O1 [Linezolid, reference compound] in terms of IC50 is > 20 µM

---

# System: HEK293 cells
# PROTOCOL_DETAILS: HEK293 resazurin cell cytotoxicity assay
# CONDITION_DESCRIPTION: read-out: IC50 mammalian cell cytotoxicity HEK293; reference compound set
PROPERTY_MEASURED: IC50
Don't forget the unit after the number, please.

For this molecule ( CC(=O)OC[C@H]1O[C@@H]([S-])[C@H](OC(C)=O)[C@@H](OC(C)=O)[C@@H]1OC(C)=O.CCP(CC)CC.[Au+] [Auranofin, reference compound] ), measured IC50 is 2200 nM
